# method-description: qHTS assay for MDR1-selective chemotherapeutics: Primary screen using the parental adenocarcinoma cell KB-3-1; also: nearly all actives have a fitted effect of over 60% in size
# measurement-setup: KB-3-1 viability, CellTiter-Glo ATP luminescence, 72 h; series mostly up to 46.1 µM
Screen size: about 400,000 compounds; about 5,500 (1.4%) were called active. About 9% were inconclusive and are not listed. Calls follow the shape of the dose curve; as a rule, active = well fitted cell-killing curve with a large enough effect; inconclusive = small, poorly fitted or top-dose-only effect, or effect the other way; inactive = flat fitted curve, though single readings scatter. The list comes from a sample in which actives are over-represented; it also holds close analogues and randomly drawn compounds.
Outcome codes: class 1 for active, class 0 for inactive

molecule	group
CCOc1ccc(CC(=O)NCCc2csc3nc(-c4ccccc4F)nn23)cc1	class 0
Fc1ccc2nc(-c3ccccc3)nc(SCc3nnc(-c4ccccc4)o3)c2c1	class 0
COc1cc(-c2noc(C3CCCN(S(=O)(=O)c4cccc(Cl)c4)C3)n2)cc(OC)c1OC (stereo not given)	class 0
O=C(Cc1cccs1)N1CCCC(c2nc(-c3ccc(S(=O)(=O)N4CCCC4)cc3)no2)C1 (stereo not given)	class 0
O=C(NNC(=O)c1ccccc1O)c1ccccc1O	class 1
CC1=C(C)CC(C(=O)NNC(=O)c2ccccc2O)C(C(=O)O)C1 (stereo not given)	class 0
CC(C)c1ccc2oc(-c3cc(NC(=O)c4cccs4)ccc3Cl)nc2c1	class 0
COc1ccccc1NC(=O)c1cc(C2CC2)nc2c1c(C)nn2-c1ccc(C)cc1	class 0
N#CCSc1nc(-c2ccccc2)nc2ccc(F)cc12	class 0
CCOC(=O)N1CCN(S(=O)(=O)c2ccc(Br)cc2)CC1	class 0

Values compiled from PubChem BioAssay AID1347075.
